- System tested: FimHL (Escherichia coli, UniProt P08191)
- Measurement protocol: Differential scanning fluorimetry (DSF)
- Type: binding
- Condition label: purified FimHL 10 μM with mannoside 100 μM; mean of two biological replicates
Endpoint name: DSF Melting Temp (°C)
One number for each entry, in °C.

Compound	System tested	Value measured
Cc1cc(-n2cc(-c3ccccc3)nn2)ccc1O[C@H]1O[C@H](CO)[C@@H](O)[C@H](O)[C@@H]1O [Example 4]	FimHL (Escherichia coli, UniProt P08191)	74.1

Can you give me DSF Melting Temp for all of these, one by one?
1. Cc1cc(-n2cc(-c3cccnc3)nn2)ccc1O[C@H]1O[C@H](CO)[C@@H](O)[C@H](O)[C@@H]1O [Example 2]
2. Cc1cc(-c2ccc3ccnc(N)c3c2)ccc1O[C@H]1O[C@H](CO)[C@@H](O)[C@H](O)[C@@H]1O [Example 14]

Marked response:
[74.4, 75.1]

Exam item: Consider the compound shown here: Cc1cc(-c2ccc3c(c2)C(=O)NCC3)ccc1OC1OC(CO)C(O)C(O)C1O (stereo not shown) [Example 21] What is its recorded DSF Melting Temp?
Marked response: 75.0

###

Consider the following molecules; for each one, report its HAI titer EC>90.
- System tested: FimH (Escherichia coli, UniProt Q1R2J4)
- Construct: endogenous in cells; host or cells: E. coli UTI89 bacteria
- Measurement protocol: Hemagglutination inhibition (HAI) assay with UTI89 bacteria and guinea pig red blood cells
- Assay type: cell-based
- Condition label: concentration reducing bacterial agglutination of guinea pig red blood cells by greater than 90%; UTI89 bacteria
One number for each entry, in µM.

Some molecules with known HAI titer EC>90 results, for comparison:
Molecule	Endpoint name	Units label	Value measured
Cc1cc(-n2cc(-c3cccc(C(=O)O)c3)nn2)ccc1O[C@H]1O[C@H](CO)[C@@H](O)[C@H](O)[C@@H]1O [Example 5]	HAI titer EC>90	µM	0.062
Cc1cc(-c2ccnc(-c3ccnc(Cl)c3)c2)ccc1OC1OC(CO)C(O)C(O)C1O (stereo not shown) [Example 6b]	HAI titer EC>90	µM	0.062
Cc1cc(-c2ccc3cc[nH]c(=O)c3c2)cc(C)c1OC1OC(CO)C(O)C(O)C1O (stereo not shown) [Example 38]	HAI titer EC>90	µM	0.266
Cc1cc(-n2cc(-c3ccccn3)nn2)ccc1O[C@H]1O[C@H](CO)[C@@H](O)[C@H](O)[C@@H]1O [Example 3]	HAI titer EC>90	µM	0.062

Can you give me HAI titer EC>90 for all of these, one by one?
1. Cc1cc(-c2ccnc(Cl)c2)ccc1OC1OC(CO)C(O)C(O)C1O (stereo not shown) [Example 6a]
2. CNC(=O)c1cc(C(=O)NCCCCCCNC(=O)CCCCC[N+]2=C(/C=C/C=C/C=C3/c4ccc5ccccc5c4C(C)(C)N3C)C(C)(C)c3ccc4ccccc4c32)cc(-c2ccc(OC3OC(CO)C(O)C(O)C3O)c(C)c2)c1 (stereo not shown) [Example 22]
3. Cc1cc(-c2cccc(-c3nnn[nH]3)c2)ccc1O[C@H]1O[C@H](CO)[C@@H](O)[C@H](O)[C@@H]1O [Example 18]

Marked response:
[0.062, 2, 0.125]

###

Consider the following compounds; for each one, report its HAI titer EC>90.
- System tested: FimH (Escherichia coli)
- Construct: endogenous in cells; host or cells: E. coli UTI89 bacteria
- Measurement protocol: Hemagglutination inhibition (HAI) assay with UTI89 bacteria and guinea pig red blood cells
- Assay type: cell-based
- Condition label: concentration reducing bacterial agglutination of guinea pig red blood cells by greater than 90%; UTI89 bacteria
Numbers only, in µM.

Some compounds with known HAI titer EC>90 results, for comparison:
Compound	HAI titer EC>90 [µM]
Cc1cc(-c2ccc3ccnc(N)c3c2)ccc1O[C@H]1O[C@H](CO)[C@@H](O)[C@H](O)[C@@H]1O [Example 14]	0.02
Cc1cc(-c2cccc3cnccc23)ccc1O[C@H]1O[C@H](CO)[C@@H](O)[C@H](O)[C@@H]1O [Example 15]	0.062
Cc1cc(-c2cccc(C(=O)N3CCOCC3)c2)ccc1O[C@H]1O[C@H](CO)[C@@H](O)[C@H](O)[C@@H]1O [Example 7]	0.25

Can you give me HAI titer EC>90 for all of these, one by one?
1. COC(=O)c1cncc(-c2ccc(O[C@H]3O[C@H](CO)[C@@H](O)[C@H](O)[C@@H]3O)c(C)c2)c1 [Example 11]
2. CNC(=O)c1cc(C(=O)O)cc(-c2ccc(O[C@H]3O[C@H](CO)[C@@H](O)[C@H](O)[C@@H]3O)c(C)c2)c1 [Example 23]
3. Cc1cc(-c2cc3[nH]c(=O)[nH]c(=O)c3s2)ccc1O[C@H]1O[C@H](CO)[C@@H](O)[C@H](O)[C@@H]1O [Example 25]
4. Cc1cc(-n2cc(-c3cccnc3)nn2)ccc1O[C@H]1O[C@H](CO)[C@@H](O)[C@H](O)[C@@H]1O [Example 2]

Marked response:
1. 0.032
2. 0.032
3. 0.024
4. 0.032

Can you give me HAI titer EC>90 for all of these, one by one?
1. Cc1cc(-c2cccc(C(=O)N3CCNCC3)c2)ccc1O[C@H]1O[C@H](CO)[C@@H](O)[C@H](O)[C@@H]1O [Example 8]
2. Cc1cc(-c2cccc(C(=O)NCCCCCCNC(=O)CCCCC[N+]3=C(/C=C/C=C/C=C4/c5ccc6ccccc6c5C(C)(C)N4C)C(C)(C)c4ccc5ccccc5c43)c2)ccc1OC1OC(CO)C(O)C(O)C1O.[Cl-] (centres unmarked) [Example 10]
3. Cc1cc(Oc2cccc(C#N)c2)c([N+](=O)[O-])cc1O[C@H]1O[C@H](CO)[C@@H](O)[C@H](O)[C@@H]1O [Example 1]
4. Cc1cc(-c2cccc3c(N)nccc23)ccc1O[C@H]1O[C@H](CO)[C@@H](O)[C@H](O)[C@@H]1O [Example 17]

Marked response:
0.25
16
0.125
0.062

Can you give me HAI titer EC>90 for all of these, one by one?
1. Cc1cc(Oc2ccc3ccncc3c2)c([N+](=O)[O-])cc1O[C@H]1O[C@H](CO)[C@@H](O)[C@H](O)[C@@H]1O [Example 34]
2. CC(=O)Nc1ccc(Oc2cc(C)c(O[C@H]3O[C@H](CO)[C@@H](O)[C@H](O)[C@@H]3O)cc2[N+](=O)[O-])cc1 [Example 33]
3. Cc1cc(-c2ccc3c(c2)C(=O)NCC3)ccc1OC1OC(CO)C(O)C(O)C1O (centres unmarked) [Example 21]
4. Cc1cc(Oc2ccc3cccnc3c2)c([N+](=O)[O-])cc1O[C@H]1O[C@H](CO)[C@@H](O)[C@H](O)[C@@H]1O [Example 36]
5. CS(=O)(=O)c1ccc(-c2ccc(O[C@H]3O[C@H](CO)[C@@H](O)[C@H](O)[C@@H]3O)c(Cl)c2)cc1 [Example 37]
6. Cc1cc(Oc2ccccc2C#N)c([N+](=O)[O-])cc1O[C@H]1O[C@H](CO)[C@@H](O)[C@H](O)[C@@H]1O [Example 35]

Marked response:
[0.125, 0.25, 0.032, 0.5, 0.15, 1]
